Target or test system: BRAF (Homo sapiens)
Construct: literature Ambit Biosciences
Assay summary: Reaction Biology P33 radiolabeled kinase assay, IC50 and time dependence
Assay type: biochemical
Cond: preincubation 60 Min, ATP 10 uM; read-out: Compound IC50* BRAF
pIC50: −log10 of the molar value.
Readout kind: pIC50

[[record]]
compound = "Cc1ccc(NC(=O)c2nc(S(C)(=O)=O)[nH]c2-c2ccc(F)cc2)cc1Nc1nccc(-c2cccnc2)n1 [Inhibitor I-14]"
readout_kind = "pIC50"
result_value = 6.49


* * *

Target or test system: PDGFR-α (Homo sapiens, UniProt P16234)
Sequence (P16234 24-1089): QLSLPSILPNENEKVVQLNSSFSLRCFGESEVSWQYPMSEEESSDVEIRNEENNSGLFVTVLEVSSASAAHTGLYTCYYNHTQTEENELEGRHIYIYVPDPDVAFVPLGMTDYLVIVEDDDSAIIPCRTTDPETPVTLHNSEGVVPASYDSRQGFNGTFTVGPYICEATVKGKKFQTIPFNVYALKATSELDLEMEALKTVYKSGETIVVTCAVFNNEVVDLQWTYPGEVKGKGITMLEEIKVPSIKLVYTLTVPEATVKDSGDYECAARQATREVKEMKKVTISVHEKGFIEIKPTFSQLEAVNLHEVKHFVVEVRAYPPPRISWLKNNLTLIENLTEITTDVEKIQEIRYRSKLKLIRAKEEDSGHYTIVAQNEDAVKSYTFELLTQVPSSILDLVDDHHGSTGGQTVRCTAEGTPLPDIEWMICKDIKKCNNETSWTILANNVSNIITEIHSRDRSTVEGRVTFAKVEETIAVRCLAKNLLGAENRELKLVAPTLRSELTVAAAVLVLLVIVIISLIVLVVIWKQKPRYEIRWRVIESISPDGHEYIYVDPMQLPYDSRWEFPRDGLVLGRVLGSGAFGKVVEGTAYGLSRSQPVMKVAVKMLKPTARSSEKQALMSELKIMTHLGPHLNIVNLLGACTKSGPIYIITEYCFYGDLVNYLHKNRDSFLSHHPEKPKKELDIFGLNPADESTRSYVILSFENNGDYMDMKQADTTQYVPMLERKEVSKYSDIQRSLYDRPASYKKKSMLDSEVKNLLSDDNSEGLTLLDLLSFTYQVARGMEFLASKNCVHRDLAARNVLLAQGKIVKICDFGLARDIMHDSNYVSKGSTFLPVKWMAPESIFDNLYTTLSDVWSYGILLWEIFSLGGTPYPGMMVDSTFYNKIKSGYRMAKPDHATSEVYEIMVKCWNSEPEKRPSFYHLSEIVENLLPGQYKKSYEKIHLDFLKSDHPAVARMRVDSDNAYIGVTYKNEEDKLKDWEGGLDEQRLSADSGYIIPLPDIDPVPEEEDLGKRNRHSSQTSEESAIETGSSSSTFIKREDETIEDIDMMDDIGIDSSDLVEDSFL
Assay summary: Reaction Biology P33 radiolabeled kinase assay, IC50 and time dependence
Assay type: biochemical
Cond: preincubation 60 Min, ATP 10 uM; read-out: Compound IC50* PDGFR-α
pIC50: −log10 of the molar value.
Readout kind: pIC50

[[record]]
smiles_text = "Cc1ccc(NC(=O)c2nc(S(C)(=O)=O)[nH]c2-c2ccc(F)cc2)cc1Nc1nccc(-c2cccnc2)n1"
result_value = 6.47


* * *

Target or test system: Aurora A (Homo sapiens, UniProt O14965)
Construct: purchased Reaction Biology Inc (contract assay)
Assay summary: Reaction Biology P33 radiolabeled kinase assay, IC50 and time dependence
Type: biochemical
Cond: preincubation 60 Min, ATP 10 uM; read-out: Compound IC50* Aurora A
pIC50: −log10 of the molar value.
Readout kind: pIC50

[[record]]
smiles_text = "Cc1ccc(NC(=O)c2nc(S(C)(=O)=O)[nH]c2-c2ccc(F)cc2)cc1Nc1nccc(-c2cccnc2)n1"
result_value = 5.58


* * *

Target or test system: PI3K-α (Homo sapiens)
Sequence (P42336 whole entry): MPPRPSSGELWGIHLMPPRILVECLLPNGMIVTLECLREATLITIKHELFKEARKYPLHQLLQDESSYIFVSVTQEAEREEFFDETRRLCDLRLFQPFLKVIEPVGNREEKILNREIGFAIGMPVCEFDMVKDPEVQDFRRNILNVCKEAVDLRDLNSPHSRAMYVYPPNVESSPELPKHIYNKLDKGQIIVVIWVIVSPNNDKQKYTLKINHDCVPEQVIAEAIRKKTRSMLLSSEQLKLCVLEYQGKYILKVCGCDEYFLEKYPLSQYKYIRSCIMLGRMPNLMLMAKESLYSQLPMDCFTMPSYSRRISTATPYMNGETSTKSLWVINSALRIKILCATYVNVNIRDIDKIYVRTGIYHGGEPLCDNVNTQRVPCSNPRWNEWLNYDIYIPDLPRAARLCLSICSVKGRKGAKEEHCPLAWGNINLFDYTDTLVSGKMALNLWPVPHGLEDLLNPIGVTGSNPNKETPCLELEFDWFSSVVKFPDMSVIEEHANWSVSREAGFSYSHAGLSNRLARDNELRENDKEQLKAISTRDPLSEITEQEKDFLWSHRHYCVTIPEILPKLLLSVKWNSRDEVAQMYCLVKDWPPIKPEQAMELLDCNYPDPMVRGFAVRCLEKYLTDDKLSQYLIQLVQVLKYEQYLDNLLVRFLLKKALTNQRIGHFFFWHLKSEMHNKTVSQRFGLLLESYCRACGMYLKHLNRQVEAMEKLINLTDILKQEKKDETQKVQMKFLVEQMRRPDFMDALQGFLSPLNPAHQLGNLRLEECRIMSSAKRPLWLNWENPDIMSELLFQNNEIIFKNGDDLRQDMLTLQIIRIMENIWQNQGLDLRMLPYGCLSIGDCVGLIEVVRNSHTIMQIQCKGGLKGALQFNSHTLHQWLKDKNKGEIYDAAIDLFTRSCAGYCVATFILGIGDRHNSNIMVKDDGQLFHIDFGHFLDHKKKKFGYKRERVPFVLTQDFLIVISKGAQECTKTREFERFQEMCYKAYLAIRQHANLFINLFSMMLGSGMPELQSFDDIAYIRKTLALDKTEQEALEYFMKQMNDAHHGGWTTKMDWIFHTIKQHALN
Sequence (P27986 whole entry partner): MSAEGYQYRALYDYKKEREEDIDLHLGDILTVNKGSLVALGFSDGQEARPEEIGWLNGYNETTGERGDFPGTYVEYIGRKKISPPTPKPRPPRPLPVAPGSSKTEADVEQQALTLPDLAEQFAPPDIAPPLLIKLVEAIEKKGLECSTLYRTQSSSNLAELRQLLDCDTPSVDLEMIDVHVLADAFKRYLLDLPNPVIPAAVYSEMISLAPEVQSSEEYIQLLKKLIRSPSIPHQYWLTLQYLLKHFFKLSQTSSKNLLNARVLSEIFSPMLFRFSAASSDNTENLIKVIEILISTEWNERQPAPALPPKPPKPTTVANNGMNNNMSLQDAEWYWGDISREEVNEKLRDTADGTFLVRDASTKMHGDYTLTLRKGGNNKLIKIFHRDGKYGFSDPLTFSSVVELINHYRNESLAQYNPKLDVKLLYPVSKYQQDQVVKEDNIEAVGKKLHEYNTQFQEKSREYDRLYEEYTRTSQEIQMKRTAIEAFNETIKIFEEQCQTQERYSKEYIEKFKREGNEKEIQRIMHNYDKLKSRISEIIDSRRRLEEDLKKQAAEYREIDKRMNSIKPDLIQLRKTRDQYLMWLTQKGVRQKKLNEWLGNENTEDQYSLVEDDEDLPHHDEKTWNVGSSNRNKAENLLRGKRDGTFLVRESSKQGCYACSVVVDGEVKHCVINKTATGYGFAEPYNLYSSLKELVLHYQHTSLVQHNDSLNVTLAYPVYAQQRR
Assay summary: Reaction Biology P33 radiolabeled kinase assay, IC50 and time dependence
Type: biochemical
Cond: preincubation 15 Min, ATP 10 uM; read-out: Compound IC50* PI3K-α
Readout kind: IC50

[[record]]
smiles_text = "Cc1ccc(NC(=O)c2nc(S(C)(=O)=O)[nH]c2-c2ccc(F)cc2)cc1Nc1nccc(-c2cccnc2)n1"
result_value = "899 nM"


* * *

Target or test system: TNK1 (Homo sapiens)
Construct: purchased Reaction Biology Inc (contract assay)
Sequence (Q13470 whole entry): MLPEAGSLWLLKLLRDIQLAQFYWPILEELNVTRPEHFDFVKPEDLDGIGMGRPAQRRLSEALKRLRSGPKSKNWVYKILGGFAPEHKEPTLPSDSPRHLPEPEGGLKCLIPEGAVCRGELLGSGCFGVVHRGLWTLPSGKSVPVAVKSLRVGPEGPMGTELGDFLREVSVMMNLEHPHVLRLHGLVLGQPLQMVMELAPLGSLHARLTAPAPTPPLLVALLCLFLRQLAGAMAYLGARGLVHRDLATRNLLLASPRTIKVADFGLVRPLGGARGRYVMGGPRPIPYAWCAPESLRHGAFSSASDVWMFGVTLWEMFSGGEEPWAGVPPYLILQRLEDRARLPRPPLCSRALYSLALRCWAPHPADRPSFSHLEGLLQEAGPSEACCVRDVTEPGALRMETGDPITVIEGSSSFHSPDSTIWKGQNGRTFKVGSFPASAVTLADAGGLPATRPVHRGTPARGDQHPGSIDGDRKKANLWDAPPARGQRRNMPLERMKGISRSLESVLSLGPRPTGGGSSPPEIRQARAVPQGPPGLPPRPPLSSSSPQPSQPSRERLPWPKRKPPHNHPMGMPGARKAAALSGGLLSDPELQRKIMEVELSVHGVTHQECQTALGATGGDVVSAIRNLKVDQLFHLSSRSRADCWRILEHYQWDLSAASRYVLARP
Assay summary: Reaction Biology P33 radiolabeled kinase assay, IC50 and time dependence
Format: biochemical
Cond: preincubation 15 Min, ATP 10 uM; read-out: Compound IC50* TNK1
Readout kind: IC50 (nM)

[[record]]
smiles_text = "Cc1ccc(NC(=O)c2nc(S(C)(=O)=O)[nH]c2-c2ccc(F)cc2)cc1Nc1nccc(-c2cccnc2)n1"
result_value = 210


* * *

Target or test system: PI3K-γ (Homo sapiens, UniProt P48736)
Construct: purchased Reaction Biology Inc (contract assay)
Assay summary: Reaction Biology P33 radiolabeled kinase assay, IC50 and time dependence
Assay type: biochemical
Cond: preincubation 15 Min, ATP 10 uM; read-out: Compound IC50* PI3K-γ
Description: “Inhibiting kinase activity” means to decrease the production of an phosphor-peptide by a particular kinase that can be separated by analytical techniques. […] Profiling data in this application were determined using these techniques at Nanosyn Inc. IC50 data were provided by Reaction Biology Inc using a P33 radiolabeled kinase assay. […]
pIC50: −log10 of the molar value.
Readout kind: pIC50

[[record]]
molecule = "Cc1ccc(NC(=O)c2nc(S(C)(=O)=O)[nH]c2-c2ccc(F)cc2)cc1Nc1nccc(-c2cccnc2)n1 [Inhibitor I-14]"
result_value = 6.90


* * *

Target or test system: FMS (Homo sapiens)
Assay summary: Reaction Biology P33 radiolabeled kinase assay, IC50 and time dependence
Format: biochemical
Cond: preincubation 15 Min, ATP 10 uM; read-out: Compound IC50* FMS
Readout kind: IC50 (nM)

[[record]]
compound = "Cc1ccc(NC(=O)c2nc(S(C)(=O)=O)[nH]c2-c2ccc(F)cc2)cc1Nc1nccc(-c2cccnc2)n1 [Inhibitor I-14]"
result_value = 220


* * *

Target or test system: P38a/MAPK14 (Homo sapiens, UniProt Q16539)
Construct: purchased Reaction Biology Inc (contract assay)
Sequence (Q16539 whole entry): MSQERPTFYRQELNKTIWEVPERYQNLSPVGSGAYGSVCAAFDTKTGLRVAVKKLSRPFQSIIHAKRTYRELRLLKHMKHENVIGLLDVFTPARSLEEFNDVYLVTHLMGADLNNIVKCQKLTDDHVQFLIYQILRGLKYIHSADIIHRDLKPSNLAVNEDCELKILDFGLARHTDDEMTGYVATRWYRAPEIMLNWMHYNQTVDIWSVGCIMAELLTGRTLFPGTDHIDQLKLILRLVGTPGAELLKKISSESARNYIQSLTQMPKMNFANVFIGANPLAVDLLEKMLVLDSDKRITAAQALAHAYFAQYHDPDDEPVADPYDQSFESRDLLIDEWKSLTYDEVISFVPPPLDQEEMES
Assay summary: Reaction Biology P33 radiolabeled kinase assay, IC50 and time dependence
Assay type: biochemical
Cond: preincubation 60 Min, ATP 10 uM; read-out: Compound IC50* P38a/MAPK14
Readout kind: IC50 (µM)

[[record]]
compound = "Cc1ccc(NC(=O)c2nc(S(C)(=O)=O)[nH]c2-c2ccc(F)cc2)cc1Nc1nccc(-c2cccnc2)n1 [Inhibitor I-14]"
target_or_test_system = "P38a/MAPK14 (Homo sapiens, UniProt Q16539)"
result_value = 0.15


* * *

Target or test system: PI3K-δ (Homo sapiens, UniProt O00329)
Construct: purchased Reaction Biology Inc (contract assay)
Sequence (O00329 whole entry): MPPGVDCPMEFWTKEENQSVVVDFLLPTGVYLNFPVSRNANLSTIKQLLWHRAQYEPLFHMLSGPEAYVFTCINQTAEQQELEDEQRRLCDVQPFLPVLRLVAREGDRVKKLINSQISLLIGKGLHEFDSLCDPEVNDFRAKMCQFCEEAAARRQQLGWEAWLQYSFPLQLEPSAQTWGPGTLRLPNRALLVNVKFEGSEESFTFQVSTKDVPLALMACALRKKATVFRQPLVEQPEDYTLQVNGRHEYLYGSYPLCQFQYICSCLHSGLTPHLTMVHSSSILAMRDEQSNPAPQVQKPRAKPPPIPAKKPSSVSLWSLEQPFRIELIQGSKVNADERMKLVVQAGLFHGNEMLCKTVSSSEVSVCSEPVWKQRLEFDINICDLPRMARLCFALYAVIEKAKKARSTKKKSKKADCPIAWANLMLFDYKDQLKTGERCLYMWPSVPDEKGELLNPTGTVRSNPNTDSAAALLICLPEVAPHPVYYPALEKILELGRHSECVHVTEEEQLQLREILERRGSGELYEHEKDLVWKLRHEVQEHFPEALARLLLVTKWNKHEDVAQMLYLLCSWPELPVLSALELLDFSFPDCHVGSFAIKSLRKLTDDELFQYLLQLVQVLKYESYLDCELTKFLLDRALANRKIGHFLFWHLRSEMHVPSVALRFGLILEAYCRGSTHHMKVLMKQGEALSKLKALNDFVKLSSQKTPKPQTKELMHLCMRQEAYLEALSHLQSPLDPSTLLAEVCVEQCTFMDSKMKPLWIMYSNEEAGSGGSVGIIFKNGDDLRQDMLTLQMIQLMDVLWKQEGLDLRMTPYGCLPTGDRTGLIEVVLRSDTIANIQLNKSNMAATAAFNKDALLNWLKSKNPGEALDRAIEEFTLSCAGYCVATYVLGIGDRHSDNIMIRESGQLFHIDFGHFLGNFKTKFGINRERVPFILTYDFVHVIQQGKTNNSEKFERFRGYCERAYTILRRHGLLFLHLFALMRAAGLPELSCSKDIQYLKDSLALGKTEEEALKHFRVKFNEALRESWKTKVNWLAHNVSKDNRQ
Sequence (P27986 whole entry partner): as the sequence (P27986 whole entry partner) above
Assay summary: Reaction Biology P33 radiolabeled kinase assay, IC50 and time dependence
Format: biochemical
Cond: preincubation 15 Min, ATP 10 uM; read-out: Compound IC50* PI3K-δ
pIC50: −log10 of the molar value.
Readout kind: pIC50

[[record]]
smiles_text = "Cc1ccc(NC(=O)c2nc(S(C)(=O)=O)[nH]c2-c2ccc(F)cc2)cc1Nc1nccc(-c2cccnc2)n1"
result_value = 5.50


* * *

Target or test system: PI3K-β (Homo sapiens)
Construct: purchased Reaction Biology Inc (contract assay)
Assay summary: Reaction Biology P33 radiolabeled kinase assay, IC50 and time dependence
Assay type: biochemical
Cond: preincubation 60 Min, ATP 10 uM; read-out: Compound IC50* PI3K-β
Readout kind: IC50 (nM)

[[record]]
smiles_text = "Cc1ccc(NC(=O)c2nc(S(C)(=O)=O)[nH]c2-c2ccc(F)cc2)cc1Nc1nccc(-c2cccnc2)n1"
result_value = 2910


* * *

Target or test system: ROS/ROS1 (Homo sapiens, UniProt P08922)
Construct: purchased Reaction Biology Inc (contract assay)
Assay summary: Reaction Biology P33 radiolabeled kinase assay, IC50 and time dependence
Assay type: biochemical
Cond: preincubation 60 Min, ATP 10 uM; read-out: Compound IC50* ROS/ROS1
pIC50: −log10 of the molar value.
Readout kind: pIC50

[[record]]
smiles_text = "Cc1ccc(NC(=O)c2nc(S(C)(=O)=O)[nH]c2-c2ccc(F)cc2)cc1Nc1nccc(-c2cccnc2)n1"
readout_kind = "pIC50"
result_value = 5.89


* * *

Target or test system: PDGFR-α (Homo sapiens)
Assay summary: Reaction Biology P33 radiolabeled kinase assay, IC50 and time dependence
Type: biochemical
Cond: preincubation 15 Min, ATP 10 uM; read-out: Compound IC50* PDGFR-α
Readout kind: IC50 (nM)

[[record]]
smiles_text = "Cc1ccc(NC(=O)c2nc(S(C)(=O)=O)[nH]c2-c2ccc(F)cc2)cc1Nc1nccc(-c2cccnc2)n1"
readout_units = "nM"
result_value = 178

